src = ChEMBL document CHEMBL1140690

# Target or system: Receptor tyrosine-protein kinase erbB-2 (Homo sapiens, UniProt P04626)
# Sequence (P04626 whole entry): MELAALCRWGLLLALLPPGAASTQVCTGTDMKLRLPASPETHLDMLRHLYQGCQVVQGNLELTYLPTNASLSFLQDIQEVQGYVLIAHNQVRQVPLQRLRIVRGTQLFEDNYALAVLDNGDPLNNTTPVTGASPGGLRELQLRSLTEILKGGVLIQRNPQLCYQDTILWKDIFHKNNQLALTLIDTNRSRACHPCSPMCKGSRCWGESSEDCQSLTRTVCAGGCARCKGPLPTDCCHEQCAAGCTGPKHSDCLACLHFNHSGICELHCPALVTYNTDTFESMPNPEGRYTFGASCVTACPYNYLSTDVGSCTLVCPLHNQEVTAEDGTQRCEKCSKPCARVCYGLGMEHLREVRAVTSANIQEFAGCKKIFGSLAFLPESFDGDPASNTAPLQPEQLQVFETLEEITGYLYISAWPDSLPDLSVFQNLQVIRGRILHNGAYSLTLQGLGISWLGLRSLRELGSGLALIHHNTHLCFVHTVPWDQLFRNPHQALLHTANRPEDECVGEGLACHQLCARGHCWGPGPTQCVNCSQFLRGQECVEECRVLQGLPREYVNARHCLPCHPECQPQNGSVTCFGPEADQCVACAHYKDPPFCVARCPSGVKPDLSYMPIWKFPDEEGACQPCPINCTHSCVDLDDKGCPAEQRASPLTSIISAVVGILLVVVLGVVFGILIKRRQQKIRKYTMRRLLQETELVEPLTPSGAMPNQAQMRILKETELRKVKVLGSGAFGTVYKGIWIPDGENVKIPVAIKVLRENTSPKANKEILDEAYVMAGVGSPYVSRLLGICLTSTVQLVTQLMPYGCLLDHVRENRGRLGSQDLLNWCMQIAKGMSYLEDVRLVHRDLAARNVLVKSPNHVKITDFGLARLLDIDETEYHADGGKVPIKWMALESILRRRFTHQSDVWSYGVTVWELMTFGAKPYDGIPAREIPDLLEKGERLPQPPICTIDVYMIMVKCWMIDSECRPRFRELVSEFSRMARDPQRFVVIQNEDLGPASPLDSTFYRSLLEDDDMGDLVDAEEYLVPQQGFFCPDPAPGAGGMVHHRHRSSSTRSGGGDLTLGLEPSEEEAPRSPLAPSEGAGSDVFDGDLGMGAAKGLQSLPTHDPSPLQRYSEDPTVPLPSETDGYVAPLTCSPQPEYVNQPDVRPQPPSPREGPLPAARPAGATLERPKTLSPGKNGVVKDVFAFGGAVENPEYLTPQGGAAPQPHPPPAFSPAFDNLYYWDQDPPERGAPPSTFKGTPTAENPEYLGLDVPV
# Assay text: Inhibition of human recombinant HER2 expressed in insect Sf9 cells
Metric name: IC50 (nM)

Completed entries (count: 8):
NC1CCN(Cc2ccn3ncnc(Nc4ccc5c(cnn5Cc5cccc(F)c5)c4)c23)CC1	23
Fc1cccc(COc2ccc(Nc3ncnn4ccc(CN5CCCNCC5)c34)cc2Cl)c1	41
NC1CCN(Cc2ccn3ncnc(Nc4ccc(OCc5cnccn5)c(Cl)c4)c23)CC1	26
NC1CCN(Cc2ccn3ncnc(Nc4ccc(OCc5cccc(F)c5)c(Cl)c4)c23)CC1	32
OCCNC1CCN(Cc2ccn3ncnc(Nc4ccc5c(cnn5Cc5cccc(F)c5)c4)c23)CC1	31
NCC1CCN(Cc2ccn3ncnc(Nc4ccc5c(cnn5Cc5cccc(F)c5)c4)c23)CC1	38
CN(C)C1CCN(Cc2ccn3ncnc(Nc4ccc5c(cnn5Cc5cccc(F)c5)c4)c23)CC1	110
Cc1cncc(Cn2ncc3cc(Nc4ncnn5ccc(CN6CCC(N)CC6)c45)ccc32)c1	13

[a] CS(=O)(=O)CCNC1CCN(Cc2ccn3ncnc(Nc4ccc5c(cnn5Cc5cccc(F)c5)c4)c23)CC1
[b] NC1CCN(Cc2ccn3ncnc(Nc4ccc5c(cnn5Cc5cccnc5)c4)c23)CC1
Lab note: check whether a or b has the lower measured IC50. Refer to your chosen item by its label in the answer.
b
(b: 34 nM, a: 190 nM)

[I] NC1CCN(Cc2ccn3ncnc(Nc4ccc(OCc5ccccn5)c(Cl)c4)c23)CC1
[II] Cc1cncc(COc2ccc(Nc3ncnn4ccc(CN5CCC(N)CC5)c34)cc2Cl)c1
[III] COc1cn2ncnc(Nc3ccc4c(cnn4Cc4cccc(F)c4)c3)c2c1CN1CCCNCC1
[IV] NC1CCN(Cc2ccn3ncnc(Nc4ccc(OCc5cccnc5)c(Cl)c4)c23)CC1
Sort (4 molecules) by IC50: min first. Please list each label once, in the requested order.
I, IV, II, III

[1] CC(=O)NC1CCN(Cc2ccn3ncnc(Nc4ccc5c(cnn5Cc5cccc(F)c5)c4)c23)CC1
[2] CNC1CCN(Cc2ccn3ncnc(Nc4ccc5c(cnn5Cc5cccc(F)c5)c4)c23)CC1
[3] O=C(CO)NC1CCN(Cc2ccn3ncnc(Nc4ccc5c(cnn5Cc5cccc(F)c5)c4)c23)CC1
Sort (3 molecules) by IC50: min first. Please list each label once, in the requested order.
2, 3, 1
(2: 54 nM, 3: 120 nM, 1: 180 nM)

[A] Fc1cccc(Cn2ncc3cc(Nc4ncnn5ccc(CNC6CCNCC6)c45)ccc32)c1
[B] NC1CCN(Cc2ccn3ncnc(Nc4ccc5c(cnn5Cc5ccncc5)c4)c23)CC1
[C] N[C@H]1CCN(Cc2ccn3ncnc(Nc4ccc5c(cnn5Cc5cccc(F)c5)c4)c23)C1
[D] NC1CCN(Cc2ccn3ncnc(Nc4ccc(OCc5cccc[n+]5[O-])c(Cl)c4)c23)CC1
[E] NC1CCN(Cc2ccn3ncnc(Nc4ccc5c(cnn5Cc5ccccn5)c4)c23)CC1
Rank entries according to their IC50, from the largest number down. Please list each label once, in the requested order.
B, A, C, E, D

[a] N[C@@H]1CCN(Cc2ccn3ncnc(Nc4ccc5c(cnn5Cc5cccc(F)c5)c4)c23)C1
[b] COc1cn2ncnc(Nc3ccc4c(cnn4Cc4cccc(F)c4)c3)c2c1CN1CCC(N)CC1
Please state the entry with greater IC50 among a and b . Refer to your chosen item by its label in the answer.
a
(a: 70 nM, b: 43 nM)
